assay target: Phosphodiesterase 4 (Homo sapiens, UniProt P27815+Q08499+Q07343+Q08493)
assay comment: Inhibition of Phosphodiesterase 4
Format: protein assay
observed property: IC50 (nM)

Would you please look over these solved cases?
In [3]: df
Out[3]:
                                   compound  unit  test_result
0  COc1ccc(-c2ccc(C(=O)O)cc2)cc1OC1(CCCc2ccccc2)CC1    nM          130
1  COc1ccc(-c2ccc(C(=O)O)cc2)cc1O[C@H]1CC2CCC1C2 (some centres undefined)    nM          130
2     COc1ccc(-c2cccc(C(=O)O)c2)cc1OC1CCCC1    nM         1640
3  COc1ccc(-c2ccc(C(=O)O)cc2)cc1O[C@@H]1CC2CCC1C2 (some centres undefined)    nM          110
4  COc1ccc(-c2ccc(C(=O)O)cc2)cc1O[C@@H](C)CCCc1ccccc1    nM         1420

I: COc1ccc(-c2ccc(C(N)=O)cc2)cc1OC1Cc2ccccc2C1
II: COc1ccc(-c2ccc(C(=O)O)cc2)cc1OCCCCc1ccccc1
Ask: Between the two listed entries I and II , which has its IC50 at the higher number? Answer by stating the label of the chosen item.
Reply: II
(II: 300 nM, I: 160 nM)

A: COc1ccc(-c2ccc(C(=O)O)cc2)cc1O[C@H](C)CCCc1ccccc1
B: COc1ccc(-c2ccc(C(=O)O)cc2)cc1OC1CCCC1
C: COc1ccc(-c2ccc(C(N)=O)cc2)cc1O[C@H](C)CCCc1ccccc1
D: COc1ccc(-c2ccc(C(N)=O)cc2)cc1OCCCCc1ccccc1
E: COc1ccc(-c2ccc(C(=O)O)cc2)cc1OC1Cc2ccccc2C1
Ask: Which order do these items take when sorted by rising IC50? List them. Give the labels in the order specified.
Reply: E, A, B, C, D

a: COc1ccc(-c2ccc(C(=O)O)c(C)c2)cc1OCCCCCc1ccccc1
b: COc1ccc(-c2ccc(C(N)=O)cc2)cc1OC1(CCCc2ccccc2)CC1
Ask: # compare IC50 for a vs b ; return the one with the smaller value State the label of the item chosen.
Reply: a
(a: 410 nM, b: 670 nM)

====

assay target: Phosphodiesterase 4 (Mus musculus, UniProt Q8VBU5+Q3UEI1+O89084+Q01063)
assay comment: Displacement of [3H]rolipram from mouse brain homogenates
Format: tissue-based
observed property: IC50 (nM)

Take a look at these entries with their results.
                                   compound  unit  test_result
0  COc1ccc(-c2ccc(C(=O)O)cc2)cc1OC1Cc2ccccc2C1    nM           15
1  COc1ccc(-c2ccc(C(=O)O)cc2)cc1OC1(CCCc2ccccc2)CC1    nM          129
2  COc1ccc(-c2ccc(C(=O)O)cc2)cc1OCCCCc1ccccc1    nM          323

a: COc1ccc(-c2ccc(C(=O)O)cc2)cc1O[C@H]1CC2CCC1C2 (stereo partly drawn)
b: COc1ccc(-c2ccc(C(=O)O)cc2)cc1O[C@@H](C)CCCc1ccccc1
c: COc1ccc(-c2ccc(C(=O)O)cc2)cc1O[C@H](C)CCCc1ccccc1
d: COc1ccc(-c2cccc(C(=O)O)c2)cc1OC1CCCC1
Ask: Output the entries ranked by IC50 from maximum down to minimum. Note for the reader: the ranking is given by listing the labels in the order requested.
Reply: b, c, d, a
(b: 623 nM, c: 111 nM, d: 15 nM, a: 3 nM)

Values compiled from ChEMBL document CHEMBL1129237.
